Please provide measured Potency for the entries that follow.
Target Or Test System: Neuropeptide S receptor (Homo sapiens) (UniProt Q6W5P4)
Sequence (Q6W5P4 whole entry, looked up): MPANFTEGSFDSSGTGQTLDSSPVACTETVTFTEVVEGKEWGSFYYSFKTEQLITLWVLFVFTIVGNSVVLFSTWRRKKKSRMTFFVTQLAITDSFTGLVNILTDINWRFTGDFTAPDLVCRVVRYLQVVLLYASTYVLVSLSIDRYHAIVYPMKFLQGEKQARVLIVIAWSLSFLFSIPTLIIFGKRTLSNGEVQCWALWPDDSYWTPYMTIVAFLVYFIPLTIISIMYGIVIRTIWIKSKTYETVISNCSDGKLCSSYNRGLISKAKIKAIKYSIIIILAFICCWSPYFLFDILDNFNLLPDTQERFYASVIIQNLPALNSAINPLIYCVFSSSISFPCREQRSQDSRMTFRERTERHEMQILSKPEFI
Assay Comment: Confirmation Concentration-Response Assay for Antagonists of the Neuropeptide S Receptor: Robust Characterization of cAMP Signal Transduction
Experimental Conditions: CHO-NPSR cells, NPS-stimulated cAMP TR-FRET; series mostly up to 50.7 µM
Results filed as inconclusive are left out. The source made the active and inactive calls. Calls follow the shape of the dose curve; as a rule, active = well fitted curve in either direction with a large enough effect; inconclusive = small, poorly fitted or top-dose-only effect; inactive = flat fitted curve, though single readings scatter.

Could you tell me Potency for each of these molecules? They are listed below.
1. N=c1c2c(ncn1-c1ccccc1)Oc1ccc3ccccc3c1C2c1ccc2c(c1)CCO2 (stereo not given)
2. CCC(C)(CCN1CCOCC1)N(Cc1cc2ccccc2n(C)c1=O)C(=O)C1CCCCC1 (stereo not given)
3. COc1cccc(C2c3c(ncn(-c4cccc(C)c4)c3=N)Oc3ccc4ccccc4c32)c1 (stereo not given)
4. COc1cccc(C2c3c(ncn(-c4ccccc4SC)c3=N)Oc3ccc4ccccc4c32)c1 (stereo not given)
5. COc1ccc(C2c3c(ncn(Cc4ccccc4)c3=N)Oc3ccc4ccccc4c32)cc1OC (stereo not given)

[out]
["2.18 µM (active)", "0.0546 µM (active)", "9.72 µM (active)", "4.87 µM (active)", "13.7 µM (active)"]
